# System: K4 kissing-loop RNA reporter;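 note: bound reporter read as fluorescence of individual clusters on recovered sequencing chips by microscopy, with normalized cluster intensities fitted with a binding model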
# testDetails: apparent KD of K4 kissing-loop reporter; higher = weaker reporter binding
# conditionLabel: Eterna round: R107; input ligand: tryptophan 2.4 mM
I would appreciate it if you labelled entries True when apparent KD of K4 kissing-loop reporter is 200 nM or higher, otherwise False.

ACUUGAGCACAUAGCACACCAAGCAGUAGGUAGGAUAUCCGGCUUAGGAGAAGGACCAUGCAGUGAUGUUGCAUGCUCCUCCAUG [Zaribies] ... False
UGAUAGGACAGAAGGAGCGGGAGUGAUGUUCCCAAAUGGAUAGGUCGACAAAGUCGACCCUCCCAGGUAGGUCGCUGUCCUAUCU [ArgBX 7 #SwitchBubble #StaticStem] ... False
GCGCUUAAAUAAGGAUAUUACAGACUCAUCUACGAGUGAUGUUCGGUGCGCUGUGCACAGAGCCUGUAAGAAGGUAUAGCAUUGC [theeternabot_sameState_KL_FMN_B_41] ... True
UAAUGUGGCACAGGAUAUACUGAUUGGAGUGAUGUUCCAAACAUGAACAAGAGACUUUUACAAGAAGUAGAAGGGUGUUAGAUAU [Exclusion FMN B GF 19] ... True
GUGUCCUAGUCGGCCGCCACUGGGUGCAAAAUAGAAGGAGCAUUGCACAUCAGUGAUGUUGAUGUCAGGACCGGGACUAGGGUGU [KL-SSTryp-B5 Brourdwalk1] ... True
GGUAGCAUGGCGGCCGCCACUGAGGCCCUAUGCGAGUCCUCUACAACCUAGUGAUGUUAGGCGUCCAGGACCGGGCCAUGCUACC ... False
UCUCCAAAGUCGGCCGCCACUCCGGGCCCUAUAAAUGGGCGCAGUGAUGUUGCGGCUAGGCCUCUGAGGACCGGGACUUUGUAGA [Estiorquin] ... False
ACAAAAGUGAUGUUUUUGAACGUGCGCGAUACCAGAAAUGUCUUCUUCCCUUGGCAGCGCUAUUACUUGUAAGAAAGUACGUUUC [theeternabot_sameState_KL_Theo_A_17] ... True
GUUAUUCUAAACGCAGUAGUGAUGUUGAUGCGAGGACCGGUACGGCCGCCACUCGACUGCCGUCACGCCCGUCCAACAGCCGGAG [theeternabot_exclusion_KL_Trp_A_20] ... True
AGGUACAAAAGUACCGCUAGAUCCACGGAAGGAGCGCGCGAAAGCGCAGGUAGGUCGCCGGGCAGUGAUGUUGCCGGAUCUAGCA [Omei KL Arginine A SS A v7] ... False
CAAAUAAAUAUAAUUGAUAAGUGAUGUUGGCGAGGACCGGUACGGCCGCCACUCGAUAUCGGUCCAUUAACCGAGUGAUGUUUGG [Default title] ... False
AAGUUGAACUGAAGGAGCGAGAAAUAGAAUGUAAGAAUAUAUGCUAGUGAUGUUAGAAAUUCUCAGGUAGGUCGCAGUAAGAAUU [V1] ... True
GGCGCCAGGAAAGGAUAUCUAAGUCUAUUAUCAAGAAUUGCCUCAAGAUCGGAGUGAUGUUCCCAGAGAGAAGGUUCUAUCCGCU [theeternabot_exclusion_KL_FMN_B_38] ... False
CAUACGCAUGGAGGAUAUGAGAAUUCUCAUGUCAUUUAAUAUUCUCAGUGAUGUUGAGGAUGUGGCUCAGAAGGCCAUGUGUAUG [Ex FMN B 21] ... True
ACGUCACGUAUACUGGUGGUUUCGAUCGAUACCAGUAGCGAGAGUUACCCUUGGCAGCGACAUGAGUGAUGUUCAUGUAUGAAGA [KL-XTheo-A1 #analogue] ... False
GGGCGCGGCGCGGCCGCCACUGCGCCUGGGUGCUCGCUGAGUGAUGUUCGUCGGCGGUUGGGUGGUAGGACCGGGUGCUGGCCGG [BDazzled - #13 SS Tryptophan B] ... True
ACGUCACGUAUACUCGUGGUUUCGAUCGAUACCAGUAGCGAGAGUUACCCUUGGCAGCGACAUGAGUGAUGUUCAUGUGCGAAGA [KL-XTheo-A3 #analogue] ... False
GGAAGGAAGGAAACCAACCAACCAACCGAUACCAGCGGAAGAGAACGCCCUUGGCAGCGGAGAAAGCCAGUGAUGUUGGAAAGAA ... True
UCCUGCAAUCAACCACGAAAGUGGUUCGAUACCAGAGUCGAAAGACUCCCUUGGCAGCGAGUGAUGUUCGAGCAGGUAAAAUAAA ... True
AGAACUGUCUGAGAUACCAGCCAUAGGAGUGAUGUUCCUAGCUCCACAAAGUGGAGCCAUAGCCCUUGGCAGCUCAGACAGUUCA [Omei KL Theo B SS A v7] ... True
AGAAAAGGGACGAUCGUCGAGUUGCCAGAAGGAGCGGUAAUUUUACCAGGUAGGUCGCUGGCCCAGUGAUGUUGGGCUUUUAAGA [Biisinaor] ... False
